The measured values listed here are drawn from paper PMC3034256.

System Name: CD45 (Homo sapiens, UniProt P08575)
Sequence (P08575 26-1306): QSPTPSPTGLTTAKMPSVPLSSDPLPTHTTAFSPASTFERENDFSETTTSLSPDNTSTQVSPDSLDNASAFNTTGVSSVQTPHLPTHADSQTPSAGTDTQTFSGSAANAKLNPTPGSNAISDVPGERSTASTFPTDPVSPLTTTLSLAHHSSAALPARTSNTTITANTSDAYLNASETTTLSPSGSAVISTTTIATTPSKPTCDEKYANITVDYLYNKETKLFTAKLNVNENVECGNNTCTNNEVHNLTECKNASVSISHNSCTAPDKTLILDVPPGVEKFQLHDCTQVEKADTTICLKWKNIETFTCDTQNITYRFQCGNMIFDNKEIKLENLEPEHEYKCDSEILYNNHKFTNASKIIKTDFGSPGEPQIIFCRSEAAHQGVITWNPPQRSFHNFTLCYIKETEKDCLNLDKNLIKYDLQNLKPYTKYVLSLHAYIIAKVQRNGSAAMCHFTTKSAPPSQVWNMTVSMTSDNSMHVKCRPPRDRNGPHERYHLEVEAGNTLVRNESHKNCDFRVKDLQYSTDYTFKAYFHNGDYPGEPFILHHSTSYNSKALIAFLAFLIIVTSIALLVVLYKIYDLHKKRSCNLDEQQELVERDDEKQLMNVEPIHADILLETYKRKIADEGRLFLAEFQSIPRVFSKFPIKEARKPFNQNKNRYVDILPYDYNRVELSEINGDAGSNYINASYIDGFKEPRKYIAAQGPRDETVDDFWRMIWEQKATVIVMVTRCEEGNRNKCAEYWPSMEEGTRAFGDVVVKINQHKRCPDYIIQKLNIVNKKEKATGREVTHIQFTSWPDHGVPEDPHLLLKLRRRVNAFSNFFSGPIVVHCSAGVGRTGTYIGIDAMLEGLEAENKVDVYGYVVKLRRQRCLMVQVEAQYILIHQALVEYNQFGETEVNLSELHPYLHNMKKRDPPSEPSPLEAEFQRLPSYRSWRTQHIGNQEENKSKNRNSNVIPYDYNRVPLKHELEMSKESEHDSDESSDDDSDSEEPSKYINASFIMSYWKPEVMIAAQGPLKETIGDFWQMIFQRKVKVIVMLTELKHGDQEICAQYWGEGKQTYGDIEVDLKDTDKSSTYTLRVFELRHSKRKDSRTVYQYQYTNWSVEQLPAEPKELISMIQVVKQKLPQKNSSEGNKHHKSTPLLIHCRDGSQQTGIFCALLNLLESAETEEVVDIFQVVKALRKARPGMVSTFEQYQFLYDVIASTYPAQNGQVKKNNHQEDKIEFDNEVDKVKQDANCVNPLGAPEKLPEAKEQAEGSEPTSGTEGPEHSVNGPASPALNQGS
Parameter: IC50

Compound | Reported Measurement
C=C/C(=C/C(=O)C[C@H](C)C[C@@H](C)CC[C@H](O)[C@H](C)C(=O)C[C@@H](O)[C@H](C)[C@@H](C)OC(=O)C[C@@H](O)C1=C(C)C(=O)OC1=O)CC [TTN, tautomycetin] | > 50 µM

----------
System Name: SHP2 (Homo sapiens, UniProt Q06124)
Sequence (Q06124 262-528): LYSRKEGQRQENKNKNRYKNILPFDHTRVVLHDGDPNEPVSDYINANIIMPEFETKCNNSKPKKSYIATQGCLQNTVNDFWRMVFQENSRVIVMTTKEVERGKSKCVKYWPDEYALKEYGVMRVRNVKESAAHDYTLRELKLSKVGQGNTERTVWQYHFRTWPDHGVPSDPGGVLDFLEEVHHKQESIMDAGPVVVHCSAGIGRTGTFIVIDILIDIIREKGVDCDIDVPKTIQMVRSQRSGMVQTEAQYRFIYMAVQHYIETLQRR
pKi: −log10 of the molar value.
Parameter: pKi

Molecule | Reported Measurement
C=C/C(=C/C(=O)C[C@H](C)C[C@@H](C)CC[C@H](O)[C@H](C)C(=O)C[C@@H](O)[C@H](C)[C@@H](C)OC(=O)C[C@@H](O)C1=C(C)C(=O)OC1=O)CC [TTN, tautomycetin] | 5.80

----------
System Name: SHP1 (Homo sapiens)
Sequence (P29350 whole entry): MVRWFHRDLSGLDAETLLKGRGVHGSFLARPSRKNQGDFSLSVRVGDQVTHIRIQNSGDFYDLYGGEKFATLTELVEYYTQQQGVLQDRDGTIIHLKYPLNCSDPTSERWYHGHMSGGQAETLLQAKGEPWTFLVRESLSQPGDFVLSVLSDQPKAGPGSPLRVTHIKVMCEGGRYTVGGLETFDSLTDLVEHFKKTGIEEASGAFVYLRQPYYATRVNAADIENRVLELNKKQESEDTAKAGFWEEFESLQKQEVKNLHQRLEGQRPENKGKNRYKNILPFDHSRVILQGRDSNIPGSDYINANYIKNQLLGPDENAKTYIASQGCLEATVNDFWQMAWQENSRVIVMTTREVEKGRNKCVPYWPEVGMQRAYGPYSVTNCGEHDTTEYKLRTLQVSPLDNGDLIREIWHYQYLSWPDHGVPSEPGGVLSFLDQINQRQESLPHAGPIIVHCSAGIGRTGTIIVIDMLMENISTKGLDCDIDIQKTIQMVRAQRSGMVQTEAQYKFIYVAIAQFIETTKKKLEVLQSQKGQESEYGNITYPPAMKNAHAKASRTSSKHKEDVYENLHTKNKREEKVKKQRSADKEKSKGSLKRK
pIC50: −log10 of the molar value.
Parameter: pIC50

Line Notation | Reported Measurement
C=C/C(=C/C(=O)C[C@H](C)C[C@@H](C)CC[C@H](O)[C@H](C)C(=O)C[C@@H](O)[C@H](C)[C@@H](C)OC(=O)C[C@@H](O)C1=C(C)C(=O)OC1=O)CC | 4.84

----------
System Name: PTP1B (Homo sapiens, UniProt P18031)
Sequence (P18031 whole entry): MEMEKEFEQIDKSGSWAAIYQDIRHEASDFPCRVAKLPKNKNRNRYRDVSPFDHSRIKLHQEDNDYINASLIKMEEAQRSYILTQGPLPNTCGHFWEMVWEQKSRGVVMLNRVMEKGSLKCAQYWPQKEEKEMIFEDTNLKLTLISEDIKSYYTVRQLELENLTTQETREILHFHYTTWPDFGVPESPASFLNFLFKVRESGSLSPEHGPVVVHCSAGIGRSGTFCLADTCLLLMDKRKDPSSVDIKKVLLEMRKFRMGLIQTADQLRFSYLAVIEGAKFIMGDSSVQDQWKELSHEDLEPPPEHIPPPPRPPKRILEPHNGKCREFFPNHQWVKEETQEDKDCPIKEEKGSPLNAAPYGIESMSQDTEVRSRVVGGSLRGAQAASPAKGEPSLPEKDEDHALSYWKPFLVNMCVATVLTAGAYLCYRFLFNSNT
Parameter: IC50 (µM)

Compound | Unit Tag | Reported Measurement
C=C/C(=C/C(=O)C[C@H](C)C[C@@H](C)CC[C@H](O)[C@H](C)C(=O)C[C@@H](O)[C@H](C)[C@@H](C)OC(=O)C[C@@H](O)C1=C(C)C(=O)OC1=O)CC [TTN, tautomycetin] | µM | 41.2

----------
System Name: PTPα (Homo sapiens, UniProt P18433)
Sequence (P18433 20-802): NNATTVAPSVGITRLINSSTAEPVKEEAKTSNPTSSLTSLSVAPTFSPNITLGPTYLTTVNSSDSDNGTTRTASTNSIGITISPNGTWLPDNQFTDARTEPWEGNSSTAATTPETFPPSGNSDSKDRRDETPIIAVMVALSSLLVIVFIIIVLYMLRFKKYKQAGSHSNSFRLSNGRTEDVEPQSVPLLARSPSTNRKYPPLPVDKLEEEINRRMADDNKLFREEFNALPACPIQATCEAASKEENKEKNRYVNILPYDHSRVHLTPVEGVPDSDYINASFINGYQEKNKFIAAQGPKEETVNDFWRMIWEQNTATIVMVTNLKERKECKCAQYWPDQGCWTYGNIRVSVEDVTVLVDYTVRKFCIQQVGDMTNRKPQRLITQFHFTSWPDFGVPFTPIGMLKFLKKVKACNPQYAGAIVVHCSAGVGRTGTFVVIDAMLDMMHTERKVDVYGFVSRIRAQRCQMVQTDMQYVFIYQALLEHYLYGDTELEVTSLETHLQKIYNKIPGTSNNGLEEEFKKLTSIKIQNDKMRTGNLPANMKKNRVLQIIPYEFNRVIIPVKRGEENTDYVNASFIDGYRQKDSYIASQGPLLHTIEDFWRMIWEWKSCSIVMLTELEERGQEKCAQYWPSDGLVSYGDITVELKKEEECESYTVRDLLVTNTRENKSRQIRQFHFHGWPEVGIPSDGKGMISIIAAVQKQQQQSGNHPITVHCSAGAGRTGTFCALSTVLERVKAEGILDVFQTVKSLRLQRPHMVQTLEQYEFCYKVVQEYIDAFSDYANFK
pIC50: −log10 of the molar value.
Parameter: pIC50

Line Notation | Reported Measurement
C=C/C(=C/C(=O)C[C@H](C)C[C@@H](C)CC[C@H](O)[C@H](C)C(=O)C[C@@H](O)[C@H](C)[C@@H](C)OC(=O)C[C@@H](O)C1=C(C)C(=O)OC1=O)CC | < 4.30

----------
System Name: HePTP (Homo sapiens)
Sequence (P35236 1-360): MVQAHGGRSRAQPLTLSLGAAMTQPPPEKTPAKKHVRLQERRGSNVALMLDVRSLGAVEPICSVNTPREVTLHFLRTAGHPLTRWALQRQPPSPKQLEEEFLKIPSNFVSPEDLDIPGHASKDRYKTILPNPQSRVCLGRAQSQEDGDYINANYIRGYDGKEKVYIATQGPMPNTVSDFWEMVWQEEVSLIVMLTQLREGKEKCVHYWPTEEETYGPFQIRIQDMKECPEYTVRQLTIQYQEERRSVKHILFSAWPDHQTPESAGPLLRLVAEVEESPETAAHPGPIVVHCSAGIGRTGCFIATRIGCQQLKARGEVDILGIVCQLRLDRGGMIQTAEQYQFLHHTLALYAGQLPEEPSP
pIC50: −log10 of the molar value.

Line Notation | pIC50
C=C/C(=C/C(=O)C[C@H](C)C[C@@H](C)CC[C@H](O)[C@H](C)C(=O)C[C@@H](O)[C@H](C)[C@@H](C)OC(=O)C[C@@H](O)C1=C(C)C(=O)OC1=O)CC | < 4.30

----------
System Name: Lyp (Homo sapiens, UniProt Q9Y2R2)
Sequence (Q9Y2R2 1-807): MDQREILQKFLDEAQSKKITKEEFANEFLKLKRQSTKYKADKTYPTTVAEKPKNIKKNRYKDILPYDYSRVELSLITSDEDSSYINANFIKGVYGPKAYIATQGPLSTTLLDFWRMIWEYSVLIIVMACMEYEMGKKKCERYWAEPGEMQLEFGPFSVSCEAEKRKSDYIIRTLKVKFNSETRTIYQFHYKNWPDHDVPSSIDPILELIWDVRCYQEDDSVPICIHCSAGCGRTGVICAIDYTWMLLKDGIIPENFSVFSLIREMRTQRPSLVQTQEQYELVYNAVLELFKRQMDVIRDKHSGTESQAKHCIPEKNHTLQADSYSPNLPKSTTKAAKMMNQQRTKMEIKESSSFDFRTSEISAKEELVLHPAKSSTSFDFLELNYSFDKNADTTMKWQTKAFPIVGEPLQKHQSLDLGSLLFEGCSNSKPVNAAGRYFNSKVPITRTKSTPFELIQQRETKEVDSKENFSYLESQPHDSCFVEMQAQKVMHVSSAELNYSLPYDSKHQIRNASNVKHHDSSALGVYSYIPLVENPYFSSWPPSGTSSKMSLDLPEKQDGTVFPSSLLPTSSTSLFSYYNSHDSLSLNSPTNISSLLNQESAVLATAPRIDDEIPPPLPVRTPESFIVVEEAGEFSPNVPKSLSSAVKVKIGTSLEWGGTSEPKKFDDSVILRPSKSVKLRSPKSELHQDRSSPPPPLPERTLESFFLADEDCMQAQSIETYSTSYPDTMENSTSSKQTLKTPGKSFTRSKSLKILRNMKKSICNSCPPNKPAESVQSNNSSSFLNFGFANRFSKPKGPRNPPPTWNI
pIC50: −log10 of the molar value.

Line Notation | System Name | pIC50
C=C/C(=C/C(=O)C[C@H](C)C[C@@H](C)CC[C@H](O)[C@H](C)C(=O)C[C@@H](O)[C@H](C)[C@@H](C)OC(=O)C[C@@H](O)C1=C(C)C(=O)OC1=O)CC | Lyp (Homo sapiens, UniProt Q9Y2R2) | 4.70

----------
System Name: VHR (Homo sapiens)
Sequence (P51452 whole entry, species assumed): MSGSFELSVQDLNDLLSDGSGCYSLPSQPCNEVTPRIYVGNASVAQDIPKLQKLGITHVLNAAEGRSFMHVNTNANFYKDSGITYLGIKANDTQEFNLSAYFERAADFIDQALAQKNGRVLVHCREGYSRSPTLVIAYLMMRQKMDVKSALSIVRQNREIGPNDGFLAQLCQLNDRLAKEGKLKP
Parameter: IC50

Line Notation | Parameter | Reported Measurement
C=C/C(=C/C(=O)C[C@H](C)C[C@@H](C)CC[C@H](O)[C@H](C)C(=O)C[C@@H](O)[C@H](C)[C@@H](C)OC(=O)C[C@@H](O)C1=C(C)C(=O)OC1=O)CC | IC50 | > 50 µM
